MEASURE: MIC (µM)
Reply with just the number (in µM).

Prompt: Find the measured MIC of O=C(O)c1cn(C2CC2)c2cc(N3CCNCC3)c(F)cc2c1=O [CPX, ciprofloxacin, reference compound] with Mycobacterium marinum CAMP 5644 as test system.
Completion: 0.38

Prompt: Please tell me the measured MIC for C[n+]1cc2c(c3ccccc31)Nc1c(OCc3cn(Cc4ccc([N+](=O)[O-])cc4)nn3)cccc1S2 ; system: Mycobacterium marinum CAMP 5644.
Completion: 131

Prompt: Find the measured MIC of C[n+]1cc2c(c3ccccc31)Nc1cc(OCc3cn(Cc4ccccc4)nn3)ccc1S2 with Mycobacterium marinum CAMP 5644 as test system.
Completion: 32.7

Prompt: Lab note: record MIC of C[n+]1cc2c(c3ccccc31)Nc1c(OCc3cn(CSc4ccccc4)nn3)cccc1S2 tested on Mycobacterium marinum CAMP 5644.
Completion: 16.3

Prompt: Provide Mycobacterium marinum CAMP 5644 MIC reading for C=CCn1cc(COc2cccc3c2Nc2c(c[n+](C)c4ccccc24)S3)nn1 .
Completion: 131

* * *

- Test system: Staphylococcus aureus ATCC 29213
- TEST DETAILS: MIC, microtitration broth method, SA
- Assay type: cell-based
- CONDITION LABEL: ATCC29213, 24 h at 37 °C
Hi there, I'd appreciate the recorded MIC for every entry that follows.
Record the value in µM, omitting the unit from your answer.

Prompt: Answer with reported MIC of C=CCn1cc(COc2ccc3c(c2)Nc2c(c[n+](C)c4ccccc24)S3)nn1 [2b]
Completion: 524

Prompt: Read off the recorded MIC for C[n+]1cc2c(c3ccccc31)Nc1ccc(OCc3cn(Cc4ccc([N+](=O)[O-])cc4)nn3)cc1S2 [2g]
Completion: 262

Prompt: Output measured MIC for this item: C[n+]1cc2c(c3ccccc31)Nc1c(OCc3cn(Cc4ccc([N+](=O)[O-])cc4)nn3)cccc1S2 [2i]
Completion: 524

Prompt: Item C[n+]1cc2c(c3ccccc31)Nc1ccc(OCc3cn(Cc4ccccc4)nn3)cc1S2 [2d] : provide MIC
Completion: 131

Prompt: Indicate the recorded MIC value for this compound: C[n+]1cc2c(c3ccccc31)Nc1cc(OCc3cn(CSc4ccccc4)nn3)ccc1S2 [2k]
Completion: 65.5

* * *

- Tested on: SNB-19 (human glioblastoma)
- TEST DETAILS: WST-1 proliferation assay, SNB-19
- Type: cell-based
- CONDITION LABEL: Homo sapiens, SNB-19, 72 h exposure
MEASURE: pIC50
Expect pIC50 as a plain number equal to -log10 of the molar concentration.

Prompt: Report pIC50, nothing else, for this molecule: C[n+]1cc2c(c3ccccc31)Nc1cc(OCc3cn(Cc4ccc([N+](=O)[O-])cc4)nn3)ccc1S2
Completion: 5.03

Prompt: Name the recorded pIC50 of the molecule listed here: C[n+]1cc2c(c3ccccc31)Nc1ccc(OCc3cn(-c4ccc(Cl)cc4)nn3)cc1S2
Completion: 4.63

Prompt: Provide pIC50 value for the following molecule: C[n+]1cc2c(c3ccccc31)Nc1cc(OCc3cn(-c4ccc(Cl)cc4)nn3)ccc1S2
Completion: 4.37

Prompt: Annotate the molecule C[n+]1cc2c(c3ccccc31)Nc1ccc(OCc3cn(Cc4ccccc4)nn3)cc1S2 with its measured pIC50.
Completion: 5.60

Prompt: Given the molecule C=CCn1cc(COc2cccc3c2Nc2c(c[n+](C)c4ccccc24)S3)nn1 , write its reported pIC50.
Completion: 5.39

Prompt: For the molecule C[n+]1cc2c(c3ccccc31)Nc1c(OCc3cn(Cc4ccc([N+](=O)[O-])cc4)nn3)cccc1S2 , give its reported pIC50.
Completion: 5.31

Prompt: Supply recorded pIC50 for C[n+]1cc2c(c3ccccc31)Nc1cc(OCc3cn(Cc4ccccc4)nn3)ccc1S2 here.
Completion: 5.47

Values from paper PMC10487436
